# Tested system: HLA-B*15:01
# Assay remarks: IEDB peptide-MHC binding, purified MHC/direct/fluorescence; filed as Kd, often an IC50 or EC50 that approximates it; bounds were set here for any values at or beyond the usual limits of such assays
# Test conditions: source organism: Bacillus anthracis
Readout: Kd

Quick note, Kd for DTVLFNAGL landed at ≥ 20 µM

====

# Tested system: HLA-B*15:01
# Assay remarks: IEDB peptide-MHC binding, purified MHC/competitive/radioactivity; filed as Kd, often an IC50 or EC50 that approximates it; bounds were set here for any values at or beyond the usual limits of such assays
# Test conditions: source organism: Dengue virus 3 Martinique/1243/1999
Readout: Kd (nM)
Quick reminder: number only, in nM, skip the unit.

{"columns": ["Item sequence", "Readout", "Value observed"],
 "data": [
  ["RQMEGEGVL", "Kd", 18.8]
]}

Quick note, Kd for QQMDPEHRQL landed at 118

====

# Tested system: HLA-B*38:01
# Assay remarks: IEDB peptide-MHC binding, purified MHC/direct/fluorescence; filed as Kd, often an IC50 or EC50 that approximates it; bounds were set here for any values at or beyond the usual limits of such assays
# Test conditions: source organism: Influenza A virus(A/swine/Shandong/fZC/2003(H9N2))
Readout: Kd

Quick note, Kd for GTEKLTITY landed at ≥ 20 µM

====

# Tested system: HLA-B*18:01
# Assay remarks: IEDB peptide-MHC binding, purified MHC/direct/fluorescence; filed as Kd, often an IC50 or EC50 that approximates it; bounds were set here for any values at or beyond the usual limits of such assays
# Test conditions: source organism: Mammarenavirus juninense
Readout: Kd

Quick note, Kd for GKLDPTNTL landed at ≥ 20 µM

====

# Tested system: HLA-B*51:01
# Assay remarks: IEDB peptide-MHC binding, purified MHC/competitive/fluorescence; filed as Kd, often an IC50 or EC50 that approximates it; bounds were set here for any values at or beyond the usual limits of such assays
# Test conditions: source organism: Salmonella enterica subsp. enterica serovar Typhi
Readout: pKd
Worth noting: pKd values are minus log10 of concentrations stated in mol/L.

Tested system HLA-B*51:01; pKd recorded for MPFIATPPV was 6.25

====

# Tested system: HLA-B*57:01
# Assay remarks: IEDB peptide-MHC binding, purified MHC/direct/fluorescence; filed as Kd, often an IC50 or EC50 that approximates it; bounds were set here for any values at or beyond the usual limits of such assays
# Test conditions: source organism: Orthohantavirus andesense
pKd: −log10 of the molar value.
Readout: pKd

Quick note, pKd for EKLKKKSAF landed at ≤ 4.70

====

# Tested system: HLA-A*03:01
# Assay remarks: IEDB peptide-MHC binding, purified MHC/direct/fluorescence; filed as Kd, often an IC50 or EC50 that approximates it; bounds were set here for any values at or beyond the usual limits of such assays
# Test conditions: source organism: Mammarenavirus lassaense
Readout: Kd

Quick note, Kd for KREEHYIVL landed at ≥ 20 µM

====

# Tested system: HLA-A*30:01
# Assay remarks: IEDB peptide-MHC binding, purified MHC/direct/fluorescence; filed as Kd, often an IC50 or EC50 that approximates it; bounds were set here for any values at or beyond the usual limits of such assays
# Test conditions: source organism: Mycobacterium tuberculosis str. Haarlem
Readout: Kd

Quick note, Kd for RGRIGRTYL landed at 23 nM

====

# Tested system: HLA-A*69:01
# Assay remarks: IEDB peptide-MHC binding, purified MHC/competitive/fluorescence; filed as Kd, often an IC50 or EC50 that approximates it; bounds were set here for any values at or beyond the usual limits of such assays
# Test conditions: source organism: Giardia lamblia ATCC 50803
pKd: −log10 of the molar value.
Readout: pKd

Quick note, pKd for APDGFYPFK landed at ≤ 4.70

====

# Tested system: HLA-A*02:12
# Assay remarks: IEDB peptide-MHC binding, purified MHC/direct/fluorescence; filed as Kd, often an IC50 or EC50 that approximates it; bounds were set here for any values at or beyond the usual limits of such assays
# Test conditions: source organism: Influenza A virus(A/swine/Shandong/fNY/2003(H9N2))
Readout: pKd
Worth noting: pKd values are minus log10 of concentrations stated in mol/L.

Tested system HLA-A*02:12; pKd recorded for VSPLAVTWW was 5.45

====

# Tested system: HLA-A*68:02
# Assay remarks: IEDB peptide-MHC binding, purified MHC/direct/fluorescence; filed as Kd, often an IC50 or EC50 that approximates it; bounds were set here for any values at or beyond the usual limits of such assays
# Test conditions: source organism: Araucaria virus
Readout: Kd

Quick note, Kd for WKAIGAYIL landed at ≥ 20 µM

====

# Tested system: HLA-A*32:15
# Assay remarks: IEDB peptide-MHC binding, purified MHC/competitive/fluorescence; filed as Kd, often an IC50 or EC50 that approximates it; bounds were set here for any values at or beyond the usual limits of such assays
# Test conditions: source organism: Yersinia pestis Nepal516
Readout: pKd
Worth noting: pKd values are minus log10 of concentrations stated in mol/L.

Tested system HLA-A*32:15; pKd recorded for YSLMSRYQF was 7.24

====

Catalogue of sequences with associated IC50
# Tested system: HLA-A*11:01
# Assay remarks: IEDB peptide-MHC binding, purified MHC/competitive/fluorescence; bounds were set here for any values at or beyond the usual limits of such assays
# Test conditions: source organism: Zaire ebolavirus
Quick reminder: number only, in µM, skip the unit.

For orientation, consider the following solved cases.
{"columns": ["Item sequence", "IC50 / µM"],
 "data": [
  ["IYIEGLMHN", 36.1],
  ["AVLYYHMMK", 0.288]
]}

Quick note, IC50 for VKNEVNSFK landed at 39.1

Quick note, IC50 for ATAHGSTLA landed at 43.1

====

# Tested system: HLA-B*39:01
# Assay remarks: IEDB peptide-MHC binding, purified MHC/competitive/fluorescence; filed as Kd, often an IC50 or EC50 that approximates it; bounds were set here for any values at or beyond the usual limits of such assays
# Test conditions: source organism: Rickettsia bellii RML369-C
pKd: −log10 of the molar value.
Readout: pKd

Quick note, pKd for AKIALAVYK landed at ≤ 4.70

====

# Tested system: HLA-B*48:01
# Assay remarks: IEDB peptide-MHC binding, purified MHC/direct/fluorescence; filed as Kd, often an IC50 or EC50 that approximates it; bounds were set here for any values at or beyond the usual limits of such assays
# Test conditions: source organism: Orthohantavirus andesense
pKd: −log10 of the molar value.
Readout: pKd

Quick note, pKd for EKLKKKSAF landed at ≤ 4.70

====

# Tested system: HLA-A*03:01
# Assay remarks: IEDB peptide-MHC binding, purified MHC/competitive/radioactivity; filed as Kd, often an IC50 or EC50 that approximates it; bounds were set here for any values at or beyond the usual limits of such assays
# Test conditions: source organism: SARS coronavirus Tor2
Catalogue of sequences with associated Kd
Quick reminder: number only, in nM, skip the unit.

For orientation, consider the following solved cases.
{"columns": ["Item sequence", "Kd / nM"],
 "data": [
  ["GLLATNNVFR", 428],
  ["LLFADINGK", 30.8],
  ["SAGFSLWIYK", 75.3]
]}

Tested system HLA-A*03:01; Kd recorded for YMSALNHTK was 108

====

# Tested system: HLA-A*02:06
# Assay remarks: IEDB peptide-MHC binding, purified MHC/competitive/radioactivity; filed as Kd, often an IC50 or EC50 that approximates it; bounds were set here for any values at or beyond the usual limits of such assays
# Test conditions: source organism: SARS coronavirus Tor2
Catalogue of sequences with associated pKd
Worth noting: pKd values are minus log10 of concentrations stated in mol/L.

For orientation, consider the following solved cases.
{"columns": ["Item sequence", "Readout", "Value observed"],
 "data": [
  ["YASALVLLI", "pKd", 8.06],
  ["FLIVAALVFL", "pKd", 8.44],
  ["LLFLVLIML", "pKd", 6.24]
]}

Tested system HLA-A*02:06; pKd recorded for NVLAWLYAA was 8.80

Tested system HLA-A*02:06; pKd recorded for NLWNTFTRL was 6.78

Tested system HLA-A*02:06; pKd recorded for KIILFLTLI was 7.61

Tested system HLA-A*02:06; pKd recorded for FLITGVFDI was 8.83

Tested system HLA-A*02:06; pKd recorded for MLWCKDGHV was 6.44

Tested system HLA-A*02:06; pKd recorded for FTYASALWEI was 8.60

====

# Tested system: HLA-B*45:06
# Assay remarks: IEDB peptide-MHC binding, purified MHC/competitive/fluorescence; filed as Kd, often an IC50 or EC50 that approximates it; bounds were set here for any values at or beyond the usual limits of such assays
# Test conditions: source organism: Methylibium petroleiphilum PM1
pKd: −log10 of the molar value.
Readout: pKd

Quick note, pKd for FQMGGIGPM landed at ≤ 5.30
